system: ncRNAs (SEQ ID NO 28-89); assay: ncRNA arrays of melanocytes, keratinocytes, normal skin, melanoma cell lines and patient samples; parameters: species or system human; details: melanoma patient 8 sample compared to normal skin
Hi, to clarify the labels: Yes covers ncRNA array expression, patient 8 from 1 upward, No covers anything below 1.

• SEQ ID NO 87 (GGGATATTTTTAAGGGGAAGGGGAAGGATAGAGAGAAAGTGCAGGCAGGGCTGGGGTCTG; listed as DNA, chemistry not given here; listed as Homo sapiens) = No
• SEQ ID NO 30 (ATTCCAAGGCCTATTAAAATTTCTGAGCATTGCCCATTTCTTTTGCTTTATCTGTAGGAC; DNA, backbone and methylation of C not given here; listed as Homo sapiens) = Yes
• SEQ ID NO 76 (TGTTTCTAATGCATACTGTGAAAGGAAAAAAAATCACAGTTATCCACCTTCTCAGGGCCT; listed as DNA, chemistry not given here; listed as Homo sapiens) = No
• SEQ ID NO 44 (AGCCAACTCACGCTTAGGGAGAACTCATACCGCCTAAATATAAAGGCAATTATATATATA; listed as DNA, chemistry not given here; listed as Homo sapiens) = No
• SEQ ID NO 79 (GTGTGTACTGATGTCAAAGACCAAATGGATGCCCCTGTGGCCAACAGTACCTTGTTAAAC; listed as DNA, chemistry not given here; listed as Homo sapiens) = Yes
• SEQ ID NO 81 (CTAGGGGCGGAGTTTCTCGTAAGGGGCAAGGCCAAGGCATCTTGTATTGGGGCTGACAGG; listed as DNA, chemistry not given here; listed as Homo sapiens) = No
• SEQ ID NO 61 (CATACATTGCCCTCACTAATCAATGGACATTTCAGCATTTCATTACTAATTTTGAGAGAA; listed as DNA, chemistry not given here; listed as Homo sapiens) = Yes
• SEQ ID NO 80 (CACACAGCCCAGTCTGCCTGTGATGGTAATATAAATCAAACCAGGGACCCAAGAGCCCAG; listed as DNA, chemistry not given here; listed as Homo sapiens) = No
• SEQ ID NO 55 (CCTCTCCCCTTCTTGCAAAAAATATTCTATATTCAAGTTTAGGAGAAAACAGAATACTTG; listed as DNA, chemistry not given here; listed as Homo sapiens) = No
• SEQ ID NO 59 (TGTGCAGCAGTATCAAAGGTCCTTAAATTCTCAACAATGAAGGAAAAACAAAAACCCATT; listed as DNA, chemistry not given here; listed as Homo sapiens) = No
• SEQ ID NO 74 (TATATTACAGGAGTTGTCTATACGATTATAGTACCTGATTCTTTGGACATATCATTGAAC; listed as DNA, chemistry not given here; listed as Homo sapiens) = Yes
• SEQ ID NO 53 (ATATATTTAGATAGTACTATGTTTCGTTTTCTTCCGATTTCAGGGATCCTTTTGTCTTAC; listed as DNA, chemistry not given here; listed as Homo sapiens) = No
• SEQ ID NO 49 (CGATGGCTTGTCATTGTCCCCTGTCCTGGAACAATAAAGCAAGTGCCTTGTGGTCTCACT; listed as DNA, chemistry not given here; listed as Homo sapiens) = No
• SEQ ID NO 43 (CTTAATCCACATTTGTTTTGAATTTTTCTGATTCCTATAGTACCATACTCTGATGCCTAT; listed as DNA, chemistry not given here; listed as Homo sapiens) = No
• SEQ ID NO 86 (AAAATTATTTTATCTTAAGTTTCCATTTAGTTGATTAAAAATAGGGTTATGAATGTTAAA; listed as DNA, chemistry not given here; listed as Homo sapiens) = No
• SEQ ID NO 29 (TTAAATACATGTTTCTAATATTTTAGTGTTTTGTATTTAGGTTATTTATTCTTTGTATCT; DNA, backbone and methylation of C not given here; listed as Homo sapiens) = Yes
• SEQ ID NO 34 (TTTTCTCTGCTTATTACCCTCCCTGTTTCCTCCTGGGCTGCCAACAACATATTATATTAC; listed as DNA, chemistry not given here; listed as Homo sapiens) = Yes
• SEQ ID NO 84 (TTATTAAAAGGACTGAGGATCATGTGTGTTGGTGTGTCCCGGAGTCTGCTCTAAGGTAAA; listed as DNA, chemistry not given here; listed as Homo sapiens) = Yes
• SEQ ID NO 31 (TTGCTTTTGTATTTGTAATTTTATGACATTTCGAAGTTTCTGTGTCTTAACTCTTTTTAA; listed as DNA, chemistry not given here; listed as Homo sapiens) = No
• SEQ ID NO 36 (TATTTGTGACTAACTGTATAACAGGTTATTTTAGTTTCTGTTCTGTGGGAAGTGTAAAGC; listed as DNA, chemistry not given here; listed as Homo sapiens) = Yes
• SEQ ID NO 41 (CTCGTAACACTGGGAAAACTGCATACAATATTTAGAAGGAACACTAATACAGCAGAATCT; listed as DNA, chemistry not given here; listed as Homo sapiens) = No
